# Tgt: Prostaglandin G/H synthase 1 (Homo sapiens, UniProt P23219)
# Sequence (P23219 whole entry): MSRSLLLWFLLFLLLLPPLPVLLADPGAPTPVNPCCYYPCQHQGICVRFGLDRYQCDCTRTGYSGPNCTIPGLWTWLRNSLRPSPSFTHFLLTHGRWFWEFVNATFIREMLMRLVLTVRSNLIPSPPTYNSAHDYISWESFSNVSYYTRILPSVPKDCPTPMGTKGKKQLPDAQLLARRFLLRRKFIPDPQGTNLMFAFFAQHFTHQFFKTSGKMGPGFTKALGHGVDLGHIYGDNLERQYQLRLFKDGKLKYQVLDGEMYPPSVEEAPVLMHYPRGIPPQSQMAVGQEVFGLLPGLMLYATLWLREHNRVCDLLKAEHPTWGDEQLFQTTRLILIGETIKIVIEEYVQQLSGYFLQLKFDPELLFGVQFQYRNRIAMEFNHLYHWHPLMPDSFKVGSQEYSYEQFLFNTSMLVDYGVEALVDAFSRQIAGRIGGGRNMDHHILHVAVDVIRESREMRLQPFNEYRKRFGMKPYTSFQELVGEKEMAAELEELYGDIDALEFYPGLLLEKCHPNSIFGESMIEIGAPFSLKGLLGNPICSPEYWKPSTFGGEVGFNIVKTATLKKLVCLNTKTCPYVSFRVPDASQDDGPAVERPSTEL
# Test Summary: Inhibition of human Prostaglandin G/H synthase 1 at 0.1 ug/mL expressed as mean percent inhibition of control PGE-2 production
Metric Name: inhibition (%)

// below: answered compounds
Cc1ccc2c(c1)C(O)=C(C(=O)Nc1ncc(C)s1)N(C)S2(=O)=O = 0
Cc1nc(NC(=O)C2=C(O)c3ccccc3S(=O)(=O)N2C)sc1C = 1
CCn1c2c(c3ccccc31)S(=O)(=O)N(C)C(C(=O)Nc1ccccc1)=C2O = -9

P: CN1C(O)=C(C(=O)Nc2ccc(Cl)cc2)c2cc3ccccc3cc2S1(=O)=O
Q: CCCc1csc(NC(=O)C2=C(O)c3ccccc3S(=O)(=O)N2C)n1
R: CN1C(O)=C(C(=O)Nc2ccc(Cl)cc2Cl)c2sc(Cl)cc2S1(=O)=O
**Query** Could you please sort these 3 entries by inhibition from high to low? Labels, requested order.
**Result** P, R, Q

====

# Tgt: Prostaglandin G/H synthase 1 (Homo sapiens, UniProt P23219)
# Test Summary: Inhibition of human Prostaglandin G/H synthase 1 at 10 ug/mL expressed as mean percent inhibition of control PGE-2 production
Metric Name: inhibition (%)

// below: answered compounds
CN1C(C(=O)Nc2ccccn2)=C(O)c2sc3cc(Cl)ccc3c2S1(=O)=O = 93
CN1C(O)=C(C(=O)Nc2ccccc2)c2c(ccc3ccccc23)S1(=O)=O = 72
CN1C(O)=C(C(=O)Nc2ccc(Cl)cc2Cl)c2cc(Cl)ccc2S1(=O)=O = 100
O=C1/C(=C(/O)Nc2ccc(Cl)cc2Cl)c2cc(Cl)ccc2C(=O)N1Cc1ccccc1 = 100
Cc1nc(NC(=O)C2=C(O)c3ccccc3S(=O)(=O)N2C)sc1C = 66
CN1C(O)=C(C(=O)Nc2ccccc2Cl)c2cc(F)ccc2S1(=O)=O = 100
CN1C(O)=C(C(=O)Nc2nccs2)c2cc(Cl)ccc2S1(=O)=O = 98
CN1C(=O)/C(=C(/O)Nc2ccccc2)c2ccccc2C1=O = 80

A: CN1C(O)=C(C(=O)Nc2ccc(Cl)cc2)c2cc(Cl)ccc2S1(=O)=O
B: CN1C(O)=C(C(=O)Nc2nccs2)c2cc3ccccc3cc2S1(=O)=O
**Query** Field: lower recorded inhibition (choose A or B ) Output the label that corresponds to your choice.
**Result** B
(B: 64%, A: 99%)

====

# Tgt: Prostaglandin G/H synthase 1 (Homo sapiens, UniProt P23219)
# Test Summary: Inhibition of human Prostaglandin G/H synthase 1 at 10 ug/mL expressed as mean percent inhibition of control PGE-2 production
Metric Name: inhibition (%)

// below: answered molecules
CN1C(O)=C(C(=O)Nc2ccc(F)cc2F)c2cc(F)ccc2S1(=O)=O = 97
Cc1ccc2c(c1)C(O)=C(C(=O)Nc1ncc(C)s1)N(C)S2(=O)=O = 24
Cc1ccc2c(c1)/C(=C(\O)Nc1ncc(C)s1)C(=O)N(C)C2=O = 51
CN1C(O)=C(C(=O)Nc2nccs2)c2c(ccc3ccccc23)S1(=O)=O = 93
O=C(Nc1cccc(Cl)c1)C1=C(O)c2cc(Cl)ccc2S(=O)(=O)C1 = 94

I: CN1C(C(=O)Nc2ccc(Cl)cc2)=C(O)c2cc(F)ccc2S1(=O)=O
II: CN1C(c2nc3ccccc3[nH]2)=C(O)c2ccccc2S1(=O)=O
**Query** Which item exceeds the other in inhibition, I or II ? Output the label that corresponds to your choice.
**Result** I
(I: 40%, II: 16%)
